Catalogue of melting point readings, one per entry.
Numeric answer only, unit °C assumed.

Check out these entries, answers already filled in.
molecule: Cc1ccc(-c2c(C#N)c(=O)n3c(sc4ccccc43)c2C(N)=O)cc1
unit-name: °C
melting point: 199
--
molecule: CCCCc1ccc(C(=O)O)nc1
unit-name: °C
melting point: 97
--
molecule: CC(=O)C(C(=O)OC1CC(C)CCC1C(C)C)C(C)C(C(C)=O)/C(=N\NC(N)=O)OC1CC(C)CCC1C(C)C (configuration not stated)
unit-name: °C
melting point: 200

# get_value(readout='melting point', item= CNC(=O)ON=C(C)SC )
78

State the recorded melting point for this entry: ClC1=C(Cl)C(Cl)(C2(Cl)C(Cl)=C(Cl)C(Cl)=C2Cl)C(Cl)=C1Cl
122
